- run description: Growth inhibition of human LS180 cells after 96 hrs by MTS assay
- Type: functional, cell-based
- details: LS180, 96 h
result type: IC50 (µM)
Quick note: give the figure in µM, leave out the unit.

Q: Please give the measured IC50 for this molecule: "CC[C@H](C)C(=O)O[C@H]1C[C@@H](C)C=C2C=C[C@H](C)[C@H](CC[C@@H]3C[C@@H](O)CC(=O)O3)[C@H]21"
Ans: 25.3

Data provenance: ChEMBL document CHEMBL1156463
